# assay.method.text: Oral bioavailability in rat at 2 to 5 mg/kg
# Type: ADME, organism-based
# assay.conditions: in vivo
reported.endpoint: bioavailability (%)

P: CCN(C(=O)Cc1ccc(S(C)(=O)=O)cc1)C1CCN(CC[C@@H](c2cc(F)cc(F)c2)N2CCN(S(C)(=O)=O)CC2)CC1
Q: CCN(C(=O)Cc1ccc(S(C)(=O)=O)cc1)C1CCN(CC[C@@H](c2cc(F)cc(F)c2)C2CCN(S(C)(=O)=O)CC2)CC1 [AZD5672]
Q: Response body: label of entry with the larger bioavailability; valid values P , Q . Refer to your chosen item by its label in the answer.
Result: Q

* * *

# assay.method.text: Intrinsic clearance in human liver microsomes
# assay.conditions: liver microsomes
reported.endpoint: microsomal CLint (µL/min/mg)

A: CCN(C(=O)Cc1ccc(S(C)(=O)=O)cc1)C1CCN(CC[C@@H](c2cccc(Cl)c2)C2CCN(S(C)(=O)=O)CC2)CC1
B: CCN(C(=O)Cc1ccc(S(C)(=O)=O)cc1)C1CCN(CC[C@@H](c2cccc(C)c2)C2CCN(S(C)(=O)=O)CC2)CC1
C: CCN(C(=O)Cc1ccc(S(C)(=O)=O)cc1)C1CCN(CC[C@H](c2ccc(S(C)(=O)=O)cc2)c2cc(F)cc(F)c2)CC1
D: CCN(C(=O)Cc1ccc(S(C)(=O)=O)cc1)C1CCN(CCC(c2ccccc2)C2CCN(S(=O)(=O)CC)CC2)CC1 (racemic)
Q: Order by microsomal CLint, smallest first, the items presented above. Field: ranking. Enter the labels in the order requested.
Result: C, A, D, B
(C: 8 µL/min/mg, A: 32 µL/min/mg, D: 61 µL/min/mg, B: 104 µL/min/mg)

* * *

# assay.method.text: Oral bioavailability in male dog at 2 to 5 mg/kg
# Assay type: ADME, organism-based, Canis lupus familiaris
# assay.conditions: in vivo
reported.endpoint: bioavailability (%)

A: CCN(C(=O)Cc1ccc(S(C)(=O)=O)cc1)C1CCN(CC[C@@H](c2cc(F)cc(F)c2)N2CCN(S(C)(=O)=O)CC2)CC1
B: CCN(C(=O)Cc1ccc(S(C)(=O)=O)cc1)C1CCN(CC[C@@H](c2cc(F)cc(F)c2)C2CCN(S(C)(=O)=O)CC2)CC1 [AZD5672]
Q: Which has the higher bioavailability, A or B ? // respond with label for picked entry
Result: B
(B: 46%, A: 15%)

* * *

# assay.method.text: Half life in female dog at 1 to 2 mg/kg, iv
# Assay type: ADME, organism-based, Canis lupus familiaris
# Set-up: dose 1-2 mg/kg, route intravenous
# assay.conditions: in vivo
reported.endpoint: half-life (h)

CCN(C(=O)Cc1ccc(S(C)(=O)=O)cc1)C1CCN(CC[C@@H](c2cc(F)cc(F)c2)C2CCN(S(C)(=O)=O)CC2)CC1    3.8
CCN(C(=O)Cc1ccc(S(C)(=O)=O)cc1)C1CCN(CC[C@@H](c2cc(F)cc(F)c2)N2CCN(S(C)(=O)=O)CC2)CC1    4.7

* * *

# assay.method.text: Lipophilicity, log D of the compound at pH 7.4
# assay.conditions: buffer
reported.endpoint: logD

CCN(C(=O)Cc1ccc(S(C)(=O)=O)cc1)C1CCN(CC[C@@H](c2cccc(S(C)(=O)=O)c2)C2CCN(S(C)(=O)=O)CC2)CC1    0.6
CCN(C(=O)Cc1ccc(S(C)(=O)=O)cc1)C1CCN(CCC(c2ccccc2)N2CCN(S(=O)(=O)CC)CC2)CC1 (racemic)    1

I: CCN(C(=O)Cc1ccc(S(C)(=O)=O)cc1)C1CCN(CCC(c2ccccc2)N2CCN(C(C)=O)CC2)CC1 (racemic)
II: CCN(C(=O)Cc1ccc(S(C)(=O)=O)cc1)C1CCN(CCC(c2ccccc2)N2CCN(c3ccccc3)CC2)CC1 (racemic)
Q: Problem: Given the entries I and II , determine which has the lower reported logD. State your choice using its label.
Result: I

All values here come from ChEMBL document CHEMBL1949642.
